test system: OVCAR-8; test: NCI tumour cell line growth inhibition, 48 h
Calls of active or inactive are those of the source. No stated cut-off is given here; in the data, active = GI50 up to about 1.1 µM and inactive = higher.
Outcomes: active, inactive

                                    molecule     class
 0  COC(=O)[C@]1(c2cc3ccccc3[nH]2)CC2CN(CC(=O)N(C)OC)C1CC2(OC)OC (stereo partly specified)  inactive
 1                    NC(=O)NO [HYDROXYUREA]  inactive
 2  CC1=C(C(=O)N[C@@H](CC(C)C)C(=O)O)N2C(=O)[C@@H](NC(=O)[C@@H](N)Cc3ccccc3)[C@H]2SC1  inactive
 3  O=C(c1ccccc1)C(c1ccccc1)C1(O)C(=O)Nc2ccc([N+](=O)[O-])cc21 (stereo unspecified)  inactive
 4  COc1ccc2c(c1)CCCN2S(=O)(=O)c1ccccc1[N+](=O)[O-]  inactive
 5  O=C1/C(=C/c2cc3c(=O)c4ccccc4sc3s2)NC(=S)N1c1ccccc1  inactive
 6  CC1=C(Cl)C=CP(=O)(Oc2ccccc2)C1 (stereo unspecified)  inactive
 7     Cc1cccc(C)c1NC(=O)/C(Cl)=C(/Cl)C(=O)O  inactive
 8  COc1cc2c(cc1OCCCCOc1cc(-c3ccc(F)cc3)nc(C)n1)N=C[C@@H]1CCCN1C2=O    active
 9      COC(=O)c1ccc(NCC2=CC(=O)C=CC2=O)cc1O  inactive
10  O=C(O)C1CSC2(CCCN(Cc3ccccc3)C2)N1 (stereo unspecified)  inactive
